TESTED TARGET: T1, Boi1, P38041
T1 sequence (P38041 1-86, looked up): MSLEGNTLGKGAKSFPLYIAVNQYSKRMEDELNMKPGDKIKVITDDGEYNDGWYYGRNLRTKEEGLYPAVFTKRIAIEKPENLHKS
TEST SUMMARY: SPOT array
RUN PARAMETERS: median of control spots 1162
MEASUREMENT LABEL: SPOT intensity
Could you keep your reply to the number by itself?

Worked cases, SPOT intensity given:
LYEAMPPTLPHRDWK
0
VRTRRRPPPPPIPST
1

Ask | Give its SPOT intensity value. Item: SGVRLPAPPPPPRRG
Reply | 0

Ask | Give its SPOT intensity value. Item: KRNRLKILLPFLEQS
Reply | 9

Ask | Give its SPOT intensity value. Item: LFMKGTPEFPKSGFS
Reply | 0
